Provenance of the data: patent US20240270821A1

target: hGLP-1R (Homo sapiens, UniProt P43220); experiment: cell-based or functional assay
Sequence (P43220 24-463): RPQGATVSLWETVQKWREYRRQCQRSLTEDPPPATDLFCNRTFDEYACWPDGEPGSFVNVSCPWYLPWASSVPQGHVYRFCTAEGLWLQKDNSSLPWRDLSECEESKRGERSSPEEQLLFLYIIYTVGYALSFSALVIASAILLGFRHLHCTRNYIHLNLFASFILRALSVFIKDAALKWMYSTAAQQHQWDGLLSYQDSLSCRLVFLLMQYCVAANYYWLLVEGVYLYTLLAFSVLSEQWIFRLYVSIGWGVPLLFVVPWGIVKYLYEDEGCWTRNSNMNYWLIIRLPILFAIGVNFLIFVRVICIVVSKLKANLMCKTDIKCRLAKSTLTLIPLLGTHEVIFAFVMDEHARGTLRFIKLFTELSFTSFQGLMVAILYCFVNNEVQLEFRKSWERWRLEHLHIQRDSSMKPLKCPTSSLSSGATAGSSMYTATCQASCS
Non-standard residues stand in square brackets, D forms with d. No end group written: not given here. αMePhe(2-F) = C[C@](N)(Cc1ccccc1F)C(=O)O; Aib = CC(C)(N)C(=O)O
Exercise: for every item that follows, state its recorded log10 of Relative cAMP EC50.
Please be aware that the numbers have been log10-transformed from Relative cAMP EC50 in nM.

Answered cases to consult:
[[record]]
binder = "YXQGTXTSDXSIXLDKKAQXAFIEYLEEGGPSSGAPPPE (synthetic construct; SITE 2: note = 2-Aminoisobutyric Acid; SITE 6: note = alpha-methyl-2-fluoro-L-phenylalanine; SITE 10: note = 3-(4-Pyridyl)-L-alanine; SITE 13: note = alpha-methyl-leucine; SITE 17: note = Lysine is chemically modified through conjugation of the epsilon-amino group of the Lysine) [Example 445]"
numeric_value = -0.14

[[record]]
binder = "YXQGTFTSDXSQXLDKKAQXAFIEXLIEXGPSSGEPPPSGEEE (non-natural residues (Aib, 4Pal, Me4Pal, αMeL); lipidated Lys; C-amide; synthetic construct; SITE 2: note = 2-Aminoisobutyric Acid; SITE 10: note = 3-(4-Pyridyl)-L-alanine; SITE 13: note = alpha-methyl-leucine; SITE 17: note = Lysine is chemically modified through conjugation of the epsilon-amino group of the Lysine side chain with (gamma-Glu)2-CO-(CH2)16-CO2H; SITE 20:) [Example 1124]"
numeric_value = 1.00

[[record]]
binder = "YXQGTFTSDFSQXLDKKAQXAFIEYLLEXGESSGEPPPSGE (synthetic construct; SITE 2: note = 2-Aminoisobutyric Acid; SITE 13: note = alpha-methyl-leucine; SITE 17: note = Lysine is chemically modified through conjugation of the epsilon-amino group of the Lysine side chain with (2-[2-(2-Amino-ethoxy)-ethoxy]-acetyl)-(gamma-Glu)-CO-(CH2) 16-CO2H; SITE 20: n) [Example 790]"
numeric_value = 0.50

[[record]]
binder = "YXQGTFTSDFSXXLDKKAQXAFIEWLLEGGESSGEPPPSGE (synthetic construct; SITE 2: note = 2-Aminoisobutyric Acid; SITE 12: note = L-ornithine; SITE 13: note = alpha-methyl-leucine; SITE 17: note = Lysine is chemically modified through conjugation of the epsilon-amino group of the Lysine side chain with (2-[2-(2-Amino-ethoxy)-ethoxy]-acetyl)-(gamma-Glu)) [Example 123]"
numeric_value = 0.68

[[record]]
binder = "Y[Aib]QGT[αMePhe(2-F)]TSDYSILLDKQAAKAFIEYLIEGGPSSGEPPPSEG-NH2 (not fully specified (residue 20)) [Example 331]"
numeric_value = -0.18


Next item in the queue.
Q: So what does the record say about log10 of Relative cAMP EC50 for YXQGTFTSDFSXXLDKKAQXAFIEYLLEGGPSSGAPPPGGSG (synthetic construct; SITE 2: note = 2-Aminoisobutyric Acid; SITE 12: note = L-ornithine; SITE 13: note = alpha-methyl-leucine; SITE 17: note = Lysine is chemically modified through conjugation of the epsilon-amino group of the Lysine side chain with (2-[2-(2-Amino-ethoxy)-ethoxy]-acetyl)-(gamma-Glu)) [Example 64] ?
Result: 0.61
